- study-system: anti-CD28 scFv (VH - linker 1 - VL) (biotinylated (captured on neutravidin coated plates))
- Sequence (scFv, as listed by the source): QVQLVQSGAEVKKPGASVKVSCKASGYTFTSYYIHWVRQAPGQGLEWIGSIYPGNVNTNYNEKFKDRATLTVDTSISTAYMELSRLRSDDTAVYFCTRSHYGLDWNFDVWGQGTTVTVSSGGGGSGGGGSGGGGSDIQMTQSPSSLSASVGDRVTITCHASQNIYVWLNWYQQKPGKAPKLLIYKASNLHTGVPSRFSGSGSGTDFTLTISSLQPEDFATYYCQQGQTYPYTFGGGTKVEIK
- experiment: clonal phage ELISA; biotinylated anti-CD28 scFv on neutravidin plate, phage detected with anti-M13-HRP;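 note: crude clonal phage supernatants added to wells preincubated with blocking buffer alone or blocking buffer plus soluble CD28 protein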
property-measured: CD28 scFv signal
Give the figure only, with no unit attached.

Req: Field request: CD28 scFv signal | item: MDWCPRHLWHECYS [Phage-241]
Resp: 2.58

Req: Given MDWCPKHLWTECFA [Phage-242] , state its recorded CD28 scFv signal.
Resp: 2.49

Req: Quick check: CD28 scFv signal of MDWCPRDRWVDCFF [Phage-223] ?
Resp: 1.58

Req: I'd like to know its CD28 scFv signal. The binder in question is MDWCPRALWFECFF [Phage-234]
Resp: 2.67

Req: Can you look up the measured CD28 scFv signal of MDWCPRYLWHVCFN [Phage-239] for me?
Resp: 2.6

Req: Query (binder): MDWCARFVGYGCLD [Phage-232] ; field requested: CD28 scFv signal
Resp: 0.065

Req: Dear colleague, I am looking for the recorded CD28 scFv signal of the following binder: MDWCPRDRWIDCFN [Phage-226]
Resp: 0.339

Req: For the binder MDWCPRYLWHECFS [Phage-235] , what CD28 scFv signal is on record?
Resp: 2.65

Req: Consider the binder MDWCPKDRWNDCYF [Phage-224] and give its measured CD28 scFv signal.
Resp: 1.09

Req: Could you tell me which CD28 scFv signal is on file for MTWCPTSFWNRCLD [Phage-233] ?
Resp: 0.392

Req: Please report the recorded CD28 scFv signal for MDWCPRDRWADCFF [Phage-225] .
Resp: 0.392

Data credit: patent US20260242478A1
